Test system: 596521-263-R-J1-PDC complex spheroid growth;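 further: spheroids exposed to compounds for 7 days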
Assay: Anticancer human tumor 596521-263-R-J1-PDC patient-derived soft tissue sarcoma cell line growth inhibition [Asc]
Settings: second compound 1 µM; first compound 0.0316 µM; active compounds read low
Each entry below carries its recorded viability, T/C.
# number only, unit % dropped from output

{"molecule": "CCN1CCN(Cc2ccc(Nc3ncc(F)c(-c4cc(F)c5nc(C)n(C(C)C)c5c4)n3)nc2)CC1 + CNC(C)C(=O)NC1CN(S(=O)(=O)c2cccc(S(=O)(=O)N3CCC4CCC(C(=O)NC(c5ccccc5)c5ccccc5)N4C(=O)C(NC(=O)C(C)NC)C3)c2)CCC2CCC(C(=O)NC(c3ccccc3)c3ccccc3)N2C1=O", "measured.value": 72.3}
{"molecule": "C#Cc1c(F)ccc2cc(O)cc(-c3ncc4c(N5CC6CCC(C5)N6)nc(OCC56CCCN5CC(F)C6)nc4c3F)c12 (centres undefined) + CNC(C)C(=O)NC1CN(S(=O)(=O)c2cccc(S(=O)(=O)N3CCC4CCC(C(=O)NC(c5ccccc5)c5ccccc5)N4C(=O)C(NC(=O)C(C)NC)C3)c2)CCC2CCC(C(=O)NC(c3ccccc3)c3ccccc3)N2C1=O", "measured.value": 74.7}
{"molecule": "Cn1ncnc1[C@H]1c2n[nH]c(=O)c3cc(F)cc(c23)N[C@@H]1c1ccc(F)cc1 + Cc1c(S(C)(=O)=O)c(-c2cc(F)cc(N3CCN(c4ccc(NS(=O)(=O)c5ccc(NC(CCN6CCC(C(=O)OCCCP(=O)(O)O)CC6)CSc6ccccc6)c(S(=O)(=O)C(F)(F)F)c5)cc4)CC3)c2)c(-c2ccc(Cl)cc2)n1C(C)C", "measured.value": 68.4}
{"molecule": "C#Cc1c(F)ccc2cc(O)cc(-c3ncc4c(N5CC6CCC(C5)N6)nc(OCC56CCCN5CC(F)C6)nc4c3F)c12 (centres undefined) + Cc1c(S(C)(=O)=O)c(-c2cc(F)cc(N3CCN(c4ccc(NS(=O)(=O)c5ccc(NC(CCN6CCC(C(=O)OCCCP(=O)(O)O)CC6)CSc6ccccc6)c(S(=O)(=O)C(F)(F)F)c5)cc4)CC3)c2)c(-c2ccc(Cl)cc2)n1C(C)C", "measured.value": 83.7}
{"molecule": "O=C(c1cc(Cc2n[nH]c(=O)c3ccccc23)ccc1F)N1CCN(C(=O)C2CC2)CC1 + Cc1c(S(C)(=O)=O)c(-c2cc(F)cc(N3CCN(c4ccc(NS(=O)(=O)c5ccc(NC(CCN6CCC(C(=O)OCCCP(=O)(O)O)CC6)CSc6ccccc6)c(S(=O)(=O)C(F)(F)F)c5)cc4)CC3)c2)c(-c2ccc(Cl)cc2)n1C(C)C", "measured.value": 78.8}

I looked up NC1CCC(NC2CC2c2ccccc2)CC1 (centres undefined) + Cc1c(S(C)(=O)=O)c(-c2cc(F)cc(N3CCN(c4ccc(NS(=O)(=O)c5ccc(NC(CCN6CCC(C(=O)OCCCP(=O)(O)O)CC6)CSc6ccccc6)c(S(=O)(=O)C(F)(F)F)c5)cc4)CC3)c2)c(-c2ccc(Cl)cc2)n1C(C)C and its viability, T/C for 596521-263-R-J1-PDC complex spheroid growth was 68.7

Lab note: molecule COc1c(OCCCN2CCOCC2)ccc2c3n(c(=NC(=O)c4cnc(N)nc4)nc12)CCN3 + Cc1c(S(C)(=O)=O)c(-c2cc(F)cc(N3CCN(c4ccc(NS(=O)(=O)c5ccc(NC(CCN6CCC(C(=O)OCCCP(=O)(O)O)CC6)CSc6ccccc6)c(S(=O)(=O)C(F)(F)F)c5)cc4)CC3)c2)c(-c2ccc(Cl)cc2)n1C(C)C tested on 596521-263-R-J1-PDC complex spheroid growth; recorded viability, T/C was 62

Cited source for all entries: PubChem BioAssay AID1963449
